Listed compounds paired with reported Relative ratio of antibody titer to alum (compound/alum), primary screening
- Tested on: A/California/07/2009 virus (H1N1; CA07)
- Set-up: species or system BALB/c mice
- DETAILS: mouse, in vivo
Reply briefly: the number, and no unit.

Below, each entry is followed by its recorded Relative ratio of antibody titer to alum (compound/alum), primary screening result.
input: Look up Relative ratio of antibody titer to alum (compound/alum), primary screening: O=C([O-])[C@H](O)[C@@H](O)[C@H](O)[C@H](O)CO.O=C([O-])[C@H](O)[C@@H](O)[C@H](O)[C@H](O)CO.[Fe+2]
output: 0.76

input: Look up Relative ratio of antibody titer to alum (compound/alum), primary screening: COc1ccc([C@@H]2CC(=O)c3c(O)cc(O[C@@H]4O[C@H](CO[C@@H]5O[C@@H](C)[C@H](O)[C@@H](O)[C@H]5O)[C@@H](O)[C@H](O)[C@H]4O)cc3O2)cc1O [Hesperidin]
output: 1.13

Further cases:
input: Look up Relative ratio of antibody titer to alum (compound/alum), primary screening: OC[C@H]1O[C@@H]2O[C@H]3[C@H](O)[C@@H](O)[C@@H](O[C@H]4[C@H](O)[C@@H](O)[C@@H](O[C@H]5[C@H](O)[C@@H](O)[C@@H](O[C@H]6[C@H](O)[C@@H](O)[C@@H](O[C@H]7[C@H](O)[C@@H](O)[C@@H](O[C@H]8[C@H](O)[C@@H](O)[C@@H](O[C@H]1[C@H](O)[C@H]2O)O[C@@H]8CO)O[C@@H]7CO)O[C@@H]6CO)O[C@@H]5CO)O[C@@H]4CO)O[C@@H]3CO [β-Cyclodextrin]
output: 0.22

Data provenance is patent US20240261398A1.
